B1: mRNA-splicing (parent)
chain: AGUUGCUGCUGGGAGCUCCAGCACAGUGAAAUGGACAGAAGGGCAGAGCAA

Variants of: B1
test: exon inclusion enrichment index; higher = more inclusion; WT1 exon 5 minigene, HEK293
Entry flag: yes if exon inclusion enrichment index reaches 0.1; no if it does not.

Completed entries (count: 8):
change: G5C C6A U7C G8A U10A A23U C24A
label class: no
--
change: G5C C6U G8C C9U U10C C18U C19U
label class: no
--
change: G5A C6U U7A G8U C9A G34U
label class: no
--
change: G5U G8U C9U G42U
label class: yes
--
change: G5A C6U U7A G8U C9A G15U
label class: no
--
change: G5C C6U G8C C9U U10C G42U
label class: yes
--
change: G5U G8U C9U G15U C16G
label class: no
--
change: G5U G8U C9U A47U G48C
label class: no

Consider the additional variant presented here.
Prompt: Hello, I need to know if C6A U7A C9A U10A G38U A39G has measured exon inclusion enrichment index not below 0.1. Thanks!
Response: yes

These measurements were taken from the RNAGym collection of RNA variant scans (doi:10.1101/gr.219683.116).
